The measurements presented in this section are drawn from the supplement of paper PMC12042874.

- test.summary: amyloid nucleation score (Sup35N fusion, yeast selection) (log enrichment); library NNK3; higher = more nucleation; inactive = no reads after selection;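 also: zero at mode of non-aggregating sequences after 7 days selection at 30°C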
assay.endpoint: amyloid nucleation score

               substance            assay_endpoint    result
 0               IYSIKSV  amyloid nucleation score    -0.357
 1  WPSLYHQMYGVYLGLLVILK  amyloid nucleation score  inactive
 2  MIGHFTYVGLWGSLATYVQV  amyloid nucleation score  inactive
 3  WISSSGIPFDRYLLWYNSVG  amyloid nucleation score  inactive
 4   RYRLSCWWIRLGGNRLAWY  amyloid nucleation score  inactive
 5  ALCRASEVIWWARVSGGCVL  amyloid nucleation score  inactive
 6         LLWCGFQDCEMKC  amyloid nucleation score  inactive
 7  RNSKLSCNVDTKSCFVECMN  amyloid nucleation score  inactive
 8          AMSTDLLSVACL  amyloid nucleation score  inactive
 9  GMTEGYYLESVGGSKFDNVV  amyloid nucleation score  inactive
10  HVVFNIIFWYSGRIGLSDIT  amyloid nucleation score      1.94
11  AVWRYSVSYTLYHSSGLLES  amyloid nucleation score  inactive
12     RDYQCLQLYCRSASPIT  amyloid nucleation score  inactive
13  FCYEHSLWLCLSYKVTVMRM  amyloid nucleation score      1.08
14  VFKFVLLSLYMFQWGNAFPM  amyloid nucleation score  inactive
15           EMRSFVGNSCI  amyloid nucleation score    -0.613
16             CLFCSALEL  amyloid nucleation score      1.99

###

- test.summary: amyloid nucleation score (Sup35N fusion, yeast selection) (log enrichment); library NNK3; higher = more nucleation; inactive = no reads after selection
assay.endpoint: amyloid nucleation score

>>> df
               substance    result
 0  VIWGTPQFSFAEVREFDLVH  inactive
 1  RLSLDRRNVRPDDMVHASGG  inactive
 2  VRREYDWMPHHWMGTGLCKC  inactive
 3  LYTGYVLAIMYWAVLARENT     -1.45
 4  HRWNMSWFGYFNLRLSVIET  inactive
 5  IRYLYLFVYSSRLSHIPGKN  inactive
 6  NVALVRTGVIHWSYSVISRV  inactive
 7            GGYRVGFYQY  inactive
 8             VGSPWSYKG  inactive
 9  LCWVNQVREMGRWNTGVQSG  inactive
10  IKVLVWFRSRCGNGANNLVC  inactive
11  DLSRDMTNVSCRKSGLWGSG  inactive
12             LQCAHLFPV     0.931
13    NWLLRYLYCRTNFGCCYR    -0.552
14       RELFTFGVFRYQASL     0.817
15               NMSPGEP  inactive
16         WLVKGPVCKGSAS    -0.116
17        LHRLMLTRCVPGFV    -0.443
18            ISCMVFANHR  inactive
19  GCLEFGVMEFPGEDEFNFLG  inactive
20      VIGQGLCWGFSTVDIP  inactive
21  VCLLNWFWIYDQYVRQLTVV  inactive
22         FGVGMALALCQRH  inactive
23  SRKIFEGTIRIRLTDSASFS  inactive
24  IEFGVCKVRNVVNDVRFRRG  inactive
25  GSHICGALSSRDLFSGVLRI  inactive
26  ARISEFTESWNRRCYTLRYC  inactive
27            NGWYKVGLMA  inactive
28              PHIGYCMW  inactive
29               SERYADL  inactive
30            NWTYTAENPG  inactive
31          NGNFWCFVLVLS     0.595
32  GCKRSSGKRFLCRGAPCDEW  inactive
33  LPICVVMDKRFCTIVISSST  inactive
34  TSGKGFYMLSVGVRVYQWDI  inactive
35           IIYILPLCPRV  inactive
36            TSKLRQCGFL  inactive
37                KMLNYM  inactive

###

- test.summary: amyloid nucleation score (Sup35N fusion, yeast selection) (log enrichment); library NNK1; higher = more nucleation; inactive = no reads after selection
# if value of amyloid nucleation score reaches 0.07, tag met; if it stays below, tag not met

               substance    class
 0  IHTVTLNNHSSNGDCSSFNI  not met
 1  NNSYFMCNTLRRVLMGLLLG      met
 2  GVRVCSMPFAALLAFLLYFS  not met
 3  PTMSLIDGIVGKLMDSRVGT  not met
 4     ILSFSSRPVVDNHSTTW      met
 5                VTMRLL      met
 6  NSNARAGVLDLPSCRTVVIE      met
 7  MSKIGLLRLDDYHRMGFCKQ  not met
 8  TTVRGASANHVLTCYCPHYL      met
 9  AGSFFSYGQFVKFTVLYHSE  not met
10             HSLRQKVPM      met
11      WANRVCMCLRTSFYHL  not met
12   EVRLPQTYLVEWGTNQFRF  not met
13        MCSLFVCMSNTSIV      met
14  ITTIMTAVTVSPPQSMWFVS      met
15  RKVGVGKYLSHFECANRIWL      met
16   DFENWPVRLWYFKTIFLRS      met
17                WNRRGA  not met
18  TLWTWTSYRVVLYSSSVKLG  not met
19       VYWTVDIWVFFVTAC      met
20  YTFNVVCILTTEYWGNGWLY      met
21  CIIVNMFYWALFYFGSEMFS      met
22           FDVGSFTGIGV      met
23  SDVGLGNKKSWGVRAVCLDE      met
24  RIISGRLSSMFVNSIKVIMD      met
25        AGHYLCGSITNLTA      met
26  RVRAVCVLFRTNAAFPAGTH  not met
27                CLFSWD      met
28                VVLNIR  not met
29              LSTNDTSR  not met

###

- test.summary: amyloid nucleation score (Sup35N fusion, yeast selection) (log enrichment); library NNK2; higher = more nucleation; inactive = no reads after selection
assay.endpoint: amyloid nucleation score

         input_sequence  numeric_result
0  DLLRPSGMFFCYGQFYCLKC           -1.05
1  ANTVHLKMLANSRSPDGTFR           0.441
2              NVPFCIVV           0.213
3  SRKPNQINNRSRNSMLGARR          -0.162
4  HCKLVFRGVMTESHSSACGG            2.82
5  ERRRYLALLQMSMCATGLCY          -0.219
6  HTEFGRVGNICLGMRCEVDW           0.792
7  EDFYAYFLIRRCVACAIIFL            3.02

###

Here the recorded amyloid nucleation score is given for each entry.
- test.summary: amyloid nucleation score (Sup35N fusion, yeast selection) (log enrichment); library NNK1; higher = more nucleation; inactive = no reads after selection
assay.endpoint: amyloid nucleation score

>>> df
               substance            assay_endpoint  numeric_result
 0       MLEQAFESFPTWRTT  amyloid nucleation score           -0.06
 1          ITYMYGYCMDYF  amyloid nucleation score           0.439
 2  NSRMMLGVLSSVAYGVRMVW  amyloid nucleation score           0.651
 3  VYSGYSCCAWLLIWTSDGTD  amyloid nucleation score            8.26
 4   KGICRGRSLSVPESWAPFR  amyloid nucleation score           0.133
 5       RIVLILRSNHCQNSY  amyloid nucleation score           0.641
 6  IRTNKVFASMPYDNSDTFCS  amyloid nucleation score            -1.5
 7  PYRPLSGRHRVLTQYGKLVG  amyloid nucleation score           0.112
 8  FVLDNRKFYVCFVGYRFGLF  amyloid nucleation score            4.83
 9  EASTYHFSCGRANVTDELGT  amyloid nucleation score           0.882
10  WSVVLDFTVDLVHFGPVGRC  amyloid nucleation score           0.242
11         MEWLYRNTATFCR  amyloid nucleation score          -0.657
12        SKSLFIIGTVPDRS  amyloid nucleation score          -0.467
13             LFALNCDCM  amyloid nucleation score            7.45
14  VCCSATISTIVFSYFYTGKR  amyloid nucleation score            7.51
15  NGYELYTDQGGQLVVCDESS  amyloid nucleation score           -2.07
16         FCCNWSCNCLRMG  amyloid nucleation score             7.8
17    GSWYHDRVSLCFFIFDCG  amyloid nucleation score            4.82
18             PSHLRYAAH  amyloid nucleation score          -0.038
19  VPLRTWLITWLGYNSHNWLC  amyloid nucleation score          -0.302
20             SIRTVSLLR  amyloid nucleation score          -0.859
21  ACLSNGKWKYPLGYESSLRR  amyloid nucleation score          -0.968
22       MSAVTGYECFRSLLV  amyloid nucleation score          -0.055
23  FLRLAWGFLIMHEIRYAGWS  amyloid nucleation score           0.413
24  RSCGQFLSWSACPFVSLRRR  amyloid nucleation score           0.274
25  GASFVGTGKWVLTGWKTRRF  amyloid nucleation score           0.124
26       IYRSHRMPKSTRTLV  amyloid nucleation score           -1.16
27               VFHAAVM  amyloid nucleation score          -0.192
28    LKWGMVLGAYIHEFGCNM  amyloid nucleation score           0.804
29  LYIQSSNYRDMVYPYSVVPL  amyloid nucleation score            1.95
30                IVDPWY  amyloid nucleation score            2.56
31  CRYSACAKRMSSFCRVRMCL  amyloid nucleation score           0.194
32  IINMMLSHRDNWLFYMSFVG  amyloid nucleation score          -0.308
33  YHTTFSNVPFKGHARNAQRG  amyloid nucleation score           0.172
34          RSPRGSVFHMFI  amyloid nucleation score           0.176
35  CYLSNLAMSHSCMHYALTAA  amyloid nucleation score          -0.713
36       RSISSVLVSIFTKMG  amyloid nucleation score           0.232
37              GGSRTIVP  amyloid nucleation score           0.411
38  IGYRYQSMLGCEGGRWWWVV  amyloid nucleation score            0.45
39  PFNGSLFYYVSWVKTNYGYY  amyloid nucleation score           0.225
40  TCAGDNHDCDIYRNLLVAFS  amyloid nucleation score            1.19
41  IFTAVSSVAFLSLINVLSLL  amyloid nucleation score            2.75
42  RNIVIMYRNCLVKLNLETGS  amyloid nucleation score            6.77
43  PSIEEEFSWVPAVFFFTWDM  amyloid nucleation score          -0.706
44  VRIILWTMDVIFRLMFTRDQ  amyloid nucleation score            0.41
45  VCVWCKISPSTYCALIFGDL  amyloid nucleation score          -0.181
46  LLSYFLRNPYMSNGTTGLHG  amyloid nucleation score           0.144
47     SVFWDLTSDWAKIGVKK  amyloid nucleation score           -1.03
48   GNDGENLMSWTIVWNFIVG  amyloid nucleation score            4.33
49               LHLAAMM  amyloid nucleation score          -0.344
50  TLQLCLSSCWYKGRRVGLEC  amyloid nucleation score           0.483
51  FNMNHGMVSVRVEDRISRAC  amyloid nucleation score           0.579
52   LSGTTLIPEYILRSSNPSI  amyloid nucleation score           0.147
53              RSFLMPDE  amyloid nucleation score           0.307
54    SYSIASVFWSSMSNGLGR  amyloid nucleation score           0.886
55  KEILVGLPMGGVRGCGSSSG  amyloid nucleation score           0.505
56  LILKYAVGRRQARVVKRNSR  amyloid nucleation score          -0.575
57                CSCYAM  amyloid nucleation score            3.25
58  VECSCKLRLAASGGNYRGWG  amyloid nucleation score             2.3
59               DDMCFLN  amyloid nucleation score           0.797
60  NTESLEFRSKKGGNCRAGLS  amyloid nucleation score           0.495
61  WLEGLKYKLAVDGRFNQSWG  amyloid nucleation score          -0.086
62  HLNNSLLELVNCRKYSIKGC  amyloid nucleation score           0.088
63  LEMGDPCQYCLDLFAGYPSG  amyloid nucleation score           0.549
64  VFSCLLHYIFKAMLGYSVCL  amyloid nucleation score          -0.155
65  LICVGCSCYSLKLSYNSSGL  amyloid nucleation score            5.79
66      FVTDMAYNMMESGLHT  amyloid nucleation score            6.44
67               KNDGYIH  amyloid nucleation score          -0.561
68  VDNVRPWRGYQPHSLVLPIV  amyloid nucleation score           0.516
69  LEITTHTSGIILMKGTPLRR  amyloid nucleation score            3.14
